- assay-system: Kir2.1 (Homo sapiens, UniProt P63252)
- Construct: host or cells: HEK293 or CHO
- Sequence (P63252 whole entry): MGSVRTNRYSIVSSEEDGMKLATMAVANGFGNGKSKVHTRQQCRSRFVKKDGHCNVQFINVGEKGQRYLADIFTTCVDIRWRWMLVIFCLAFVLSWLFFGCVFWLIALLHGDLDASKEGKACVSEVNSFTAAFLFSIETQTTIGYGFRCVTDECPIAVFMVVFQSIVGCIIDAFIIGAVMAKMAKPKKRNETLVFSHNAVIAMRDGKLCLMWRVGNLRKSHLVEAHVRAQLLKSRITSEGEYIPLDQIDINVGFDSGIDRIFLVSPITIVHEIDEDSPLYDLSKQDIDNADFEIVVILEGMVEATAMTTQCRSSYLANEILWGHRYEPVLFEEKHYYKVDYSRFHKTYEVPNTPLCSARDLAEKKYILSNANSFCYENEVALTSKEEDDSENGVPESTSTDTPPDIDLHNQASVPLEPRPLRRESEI
- test-details: Ion channel panel (IonWorks Barracuda): Kir2.1
- Format: cell-based
- test-parameters: peptide at 0.2 μM; 100% = no change, <100% = inhibition
outcome-measure: Activity of Kir2.1 with peptide, expressed as a percentage of the reference compound (%)
Your answer should be a plain number; it is taken to be in %.

3 (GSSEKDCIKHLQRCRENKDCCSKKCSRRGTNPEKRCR) [compound 3]
107
36 (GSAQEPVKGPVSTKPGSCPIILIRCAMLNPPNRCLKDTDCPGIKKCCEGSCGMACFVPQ) [compound 36]
108
13 (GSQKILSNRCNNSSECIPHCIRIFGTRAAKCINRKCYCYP) [compound 13]
97
6 (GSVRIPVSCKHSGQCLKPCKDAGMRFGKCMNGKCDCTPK) [compound 6]
96
19 (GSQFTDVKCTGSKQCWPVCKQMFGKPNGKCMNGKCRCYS) [compound 19]
107

Inquiry: Item 20 (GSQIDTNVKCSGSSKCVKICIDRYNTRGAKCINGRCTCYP) [compound 20] has what recorded Activity of Kir2.1 with peptide, expressed as a percentage of the reference compound?
Reply text: 89

Inquiry: What value of Activity of Kir2.1 with peptide, expressed as a percentage of the reference compound has been reported for the following substance? 5 (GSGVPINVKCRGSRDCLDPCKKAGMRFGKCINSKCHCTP) [compound 5]
Reply text: 103

Inquiry: Which Activity of Kir2.1 with peptide, expressed as a percentage of the reference compound reading was recorded for the substance 23 (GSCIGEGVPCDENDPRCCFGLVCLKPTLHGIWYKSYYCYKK) [compound 23] ?
Reply text: 105

Inquiry: Entry 12 (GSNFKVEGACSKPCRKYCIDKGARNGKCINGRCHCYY) [compound 12] : reported Activity of Kir2.1 with peptide, expressed as a percentage of the reference compound = ?
Reply text: 97

Inquiry: Give its Activity of Kir2.1 with peptide, expressed as a percentage of the reference compound value. Item: 38 (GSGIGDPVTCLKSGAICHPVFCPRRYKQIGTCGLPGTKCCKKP) [compound 38]
Reply text: 88

Inquiry: Requested read-out: Activity of Kir2.1 with peptide, expressed as a percentage of the reference compound. Entry: 39 (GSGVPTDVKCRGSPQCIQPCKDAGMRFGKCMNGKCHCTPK) [compound 39]
Reply text: 110

Attribution: patent US20200262877A1
